tested on: HeLa Kyoto; assay: solubility in G1/S (NP-40 vs SDS abundance) (log2 ratio); higher = more soluble; settings: cell cycle stage: G1/S
Assign solubility in G1/S (log2) to each entry below.
# answer = number (no unit)

Query string: Recorded solubility in G1/S (log2) for MTMDGDSSTTDASQLGISADYIGGSHYVIQPHDDTEDSMNDHEDTNGSKESFREQDIYLPIANVARIMKNAIPQTGKIAKDAKECVQECVSEFISFITSEASERCHQEKRKTINGEDILFAMSTLGFDSYVEPLKLYLQKFREAMKGEKGIGGAVTATDGLSEELTEEAFTNQLPAGLITTDGQQQNVMVYTTSYQQISGVQQIQFS [NFYB] , please?
Result string: 0.036

Query string: Recorded solubility in G1/S (log2) for MPKRSCPFADVAPLQLKVRVSQRELSRGVCAERYSQEVFEKTKRLLFLGAQAYLDHVWDEGCAVVHLPESPKPGPTGAPRAARGQMLIGPDGRLIRSLGQASEADPSGVASIACSSCVRAVDGKAVCGQCERALCGQCVRTCWGCGSVACTLCGLVDCSDMYEKVLCTSCAMFET [SIVA1] , please?
Result string: -0.0737

Query string: Recorded solubility in G1/S (log2) for MAAARHSTLDFMLGAKADGETILKGLQSIFQEQGMAESVHTWQDHGYLATYTNKNGSFANLRIYPHGLVLLDLQSYDGDAQGKEEIDSILNKVEERMKELSQDSTGRVKRLPPIVRGGAIDRYWPTADGRLVEYDIDEVVYDEDSPYQNIKILHSKQFGNILILSGDVNLAESDLAYTRAIMGSGKEDYTGKDVLILGGGDGGILCEIVKLKPKMVTMVEIDQMVIDGCKKYMRKTCGDVLDNLKGDCYQVLIEDCIPVLKRYAKEGREFDYVINDLTAVPISTSPEEDSTWEFLRLILDLSMKVLKQDGKYFTQGNCVNLTEALSLYEEQLGRLYCPVEFSKEIVCVPSYLELWVFYTVWKKAKP [SMS] , please?
Result string: 0.398

###

tested on: HeLa Kyoto; experiment: thermal stability score vs G1/S (z-score of summed log2 fold changes over temperatures); higher = more thermally stable than in G1/S; conditions: cell cycle stage: early G1 (4.5 h after nocodazole release)
Output condition met for thermal stability score not less than 1; output condition not met otherwise.

Query string: Identify whether the reported thermal stability score of the following sequence is 1 or greater: MDWLMGKSKAKPNGKKPAAEERKAYLEPEHTKARITDFQFKELVVLPREIDLNEWLASNTTTFFHHINLQYSTISEFCTGETCQTMAVCNTQYYWYDERGKKVKCTAPQYVDFVMSSVQKLVTDEDVFPTKYGREFPSSFESLVRKICRHLFHVLAHIYWAHFKETLALELHGHLNTLYVHFILFAREFNLLDPKETAIMDDLTEVLCSGAGGVHSGGSGDGAGSGGPGAQNHVKER [MOB2]
Result string: condition not met

Query string: Identify whether the reported thermal stability score of the following sequence is 1 or greater: MWSGPPQPDQGLPPPLAAVPVPWKSTDPCQGHRESPGALVETSAGEEAQGQEGPAAAQLDVLRLRSSSMEIREKGSEFLKEELHRAQKELKLKDEECERLSKVREQLEQELEELTASLFEEAHKMVREANMKQAASEKQLKEARGKIDMLQAEVTALKTLVITSTPASPNRELHPQLLSPTKAGPRKGHSRHKSTSSTLCPAVCPAAGHTLTPDREGKEVDTILFAEFQAWRESPTLDKTCPFLERVYREDVGPCLDFTMQELSVLVRAAVEDNTLTIEPVASQTLPTVKVAEVDCSSTNTCALSGLTRTCRHRIRLGDSKSHYYISPSSRARITAVCNFFTYIRYIQQGLVRQDAEPMFWEIMRLRKEMSLAKLGFFPQEA [RAB3IL1]
Result string: condition not met

Query string: Identify whether the reported thermal stability score of the following sequence is 1 or greater: MDGGDDGNLIIKKRFVSEAELDERRKRRQEEWEKVRKPEDPEECPEEVYDPRSLYERLQEQKDRKQQEYEEQFKFKNMVRGLDEDETNFLDEVSRQQELIEKQRREEELKELKEYRNNLKKVGISQENKKEVEKKLTVKPIETKNKFSQAKLLAGAVKHKSSESGNSVKRLKPDPEPDDKNQEPSSCKSLGNTSLSGPSIHCPSAAVCIGILPGLGAYSGSSDSESSSDSEGTINATGKIVSSIFRTNTFLEAP [FAM192A]
Result string: condition not met

Query string: Identify whether the reported thermal stability score of the following sequence is 1 or greater: MASKCPKCDKTVYFAEKVSSLGKDWHKFCLKCERCSKTLTPGGHAEHDGKPFCHKPCYATLFGPKGVNIGGAGSYIYEKPLAEGPQVTGPIEVPAARAEERKASGPPKGPSRASSVTTFTGEPNTCPRCSKKVYFAEKVTSLGKDWHRPCLRCERCGKTLTPGGHAEHDGQPYCHKPCYGILFGPKGVNTGAVGSYIYDRDPEGKVQP [CRIP2]
Result string: condition not met

Query string: Identify whether the reported thermal stability score of the following sequence is 1 or greater: MNIVVEFFVVTFKVLWAFVLAAARWLVRPKEKSVAGQVCLITGAGSGLGRLFALEFARRRALLVLWDINTQSNEETAGMVRHIYRDLEAADAAALQAGNGEEEILPHCNLQVFTYTCDVGKRENVYLTAERVRKEVGEVSVLVNNAGVVSGHHLLECPDELIERTMMVNCHAHFWTTKAFLPTMLEINHGHIVTVASSLGLFSTAGVEDYCASKFGVVGFHESLSHELKAAEKDGIKTTLVCPYLVDTGMFRGCRIRKEIEPFLPPLKPDYCVKQAMKAILTDQPMICTPRLMYIVTFMKSILPFEAVVCMYRFLGADKCMYPFIAQRKQATNNNEAKNGI [RDH10]
Result string: condition not met

Query string: Identify whether the reported thermal stability score of the following sequence is 1 or greater: MENTENSVDSKSIKNLEPKIIHGSESMDSGISLDNSYKMDYPEMGLCIIINNKNFHKSTGMTSRSGTDVDAANLRETFRNLKYEVRNKNDLTREEIVELMRDVSKEDHSKRSSFVCVLLSHGEEGIIFGTNGPVDLKKITNFFRGDRCRSLTGKPKLFIIQACRGTELDCGIETDSGVDDDMACHKIPVEADFLYAYSTAPGYYSWRNSKDGSWFIQSLCAMLKQYADKLEFMHILTRVNRKVATEFESFSFDATFHAKKQIPCIVSMLTKELYFYH [CASP3]
Result string: condition not met

Query string: Identify whether the reported thermal stability score of the following sequence is 1 or greater: MAAAEEEPKPKKLKVEAPQALRENILFGMGNPLLDISAVVDKDFLDKYSLKPNDQILAEDKHKELFDELVKKFKVEYHAGGSTQNSIKVAQWMIQQPHKAATFFGCIGIDKFGEILKRKAAEAHVDAHYYEQNEQPTGTCAACITGDNRSLIANLAAANCYKKEKHLDLEKNWMLVEKARVCYIAGFFLTVSPESVLKVAHHASENNRIFTLNLSAPFISQFYKESLMKVMPYVDILFGNETEAATFAREQGFETKDIKEIAKKTQALPKMNSKRQRIVIFTQGRDDTIMATESEVTAFAVLDQDQKEIIDTNGAGDAFVGGFLSQLVSDKPLTECIRAGHYAASIIIRRTGCTFPEKPDFH [ADK]
Result string: condition met

Query string: Identify whether the reported thermal stability score of the following sequence is 1 or greater: MADIIARLREDGIQKRVIQEGRGELPDFQDGTKATFHYRTLHSDDEGTVLDDSRARGKPMELIIGKKFKLPVWETIVCTMREGEIAQFLCDIKHVVLYPLVAKSLRNIAVGKDPLEGQRHCCGVAQMREHSSLGHADLDALQQNPQPLIFHMEMLKVESPGTYQQDPWAMTDEEKAKAVPLIHQEGNRLYREGHVKEAAAKYYDAIACLKNLQMKEQPGSPEWIQLDQQITPLLLNYCQCKLVVEEYYEVLDHCSSILNKYDDNVKAYFKRGKAHAAVWNAQEAQADFAKVLELDPALAPVVSRELRALEARIRQKDEEDKARFRGIFSH [AIP]
Result string: condition met

Query string: Identify whether the reported thermal stability score of the following sequence is 1 or greater: MPRPGSAQRWAAVAGRWGCRLLALLLLVPGPGGASEITFELPDNAKQCFYEDIAQGTKCTLEFQVITGGHYDVDCRLEDPDGKVLYKEMKKQYDSFTFTASKNGTYKFCFSNEFSTFTHKTVYFDFQVGEDPPLFPSENRVSALTQMESACVSIHEALKSVIDYQTHFRLREAQGRSRAEDLNTRVAYWSVGEALILLVVSIGQVFLLKSFFSDKRTTTTRVGS [TMED7]
Result string: condition met
